Reference source for all entries: ChEMBL document CHEMBL1125005

Target: 3-hydroxy-3-methylglutaryl-coenzyme A reductase (Rattus norvegicus, UniProt P51639)
Sequence (P51639 whole entry): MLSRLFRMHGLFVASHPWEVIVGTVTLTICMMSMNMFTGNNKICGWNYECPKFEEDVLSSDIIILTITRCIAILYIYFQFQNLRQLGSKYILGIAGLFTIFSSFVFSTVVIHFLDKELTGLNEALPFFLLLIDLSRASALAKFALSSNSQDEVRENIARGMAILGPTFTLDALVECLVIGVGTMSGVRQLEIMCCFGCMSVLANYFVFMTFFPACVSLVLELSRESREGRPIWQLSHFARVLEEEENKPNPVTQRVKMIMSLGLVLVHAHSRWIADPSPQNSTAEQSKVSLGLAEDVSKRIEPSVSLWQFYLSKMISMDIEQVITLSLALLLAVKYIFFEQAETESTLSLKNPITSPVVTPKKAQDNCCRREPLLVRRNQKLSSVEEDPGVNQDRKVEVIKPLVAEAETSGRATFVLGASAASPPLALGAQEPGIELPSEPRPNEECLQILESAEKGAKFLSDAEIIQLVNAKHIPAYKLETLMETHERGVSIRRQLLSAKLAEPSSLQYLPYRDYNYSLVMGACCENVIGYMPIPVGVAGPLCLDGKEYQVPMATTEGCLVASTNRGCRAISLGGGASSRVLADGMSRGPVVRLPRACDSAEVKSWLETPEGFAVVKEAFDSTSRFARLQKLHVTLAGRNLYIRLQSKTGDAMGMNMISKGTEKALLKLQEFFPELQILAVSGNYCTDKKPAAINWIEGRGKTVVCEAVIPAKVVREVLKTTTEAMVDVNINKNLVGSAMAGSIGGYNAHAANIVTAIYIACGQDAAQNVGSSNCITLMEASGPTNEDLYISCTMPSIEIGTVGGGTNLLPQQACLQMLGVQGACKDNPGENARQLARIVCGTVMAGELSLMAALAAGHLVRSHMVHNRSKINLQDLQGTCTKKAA
Assay: In vitro inhibitory activity was measured against rat liver HMG-CoA reductase
Decide using IC50 alone. Strictly below 6 µM: condition met. Equal to or above 6 µM: condition not met.

Answered cases to consult:
- MOLECULE: "Cn1nnnc1C(/C=C/[C@@H](O)C[C@@H](O)CC(=O)[O-])=C(c1ccc(F)cc1)c1ccc(F)cc1.[Na+] (stereo in doubt; 3a)"
  CLASS_NAME: "condition met"
- MOLECULE: "Cn1nnnc1C(/C=C/[C@@H](O)C[C@@H](O)CC(=O)O)=C(c1ccc(F)cc1)c1ccc(F)cc1 (stereo in doubt; 48)"
  CLASS_NAME: "condition not met"
- MOLECULE: "Cc1ccc(C(=C(/C=C/[C@@H](O)C[C@@H](O)CC(=O)O)c2nnnn2C)c2ccc(C)cc2)cc1"
  CLASS_NAME: "condition met"
- MOLECULE: "N#CC(/C=C/[C@@H](O)C[C@@H](O)CC(=O)O)=C(c1ccc(F)cc1)c1ccc(F)cc1"
  CLASS_NAME: "condition not met"
- MOLECULE: "Cc1cc(C(=C(/C=C/[C@@H](O)C[C@@H](O)CC(=O)O)c2nnnn2C)c2ccc(F)c(C)c2)ccc1F"
  CLASS_NAME: "condition met"
- MOLECULE: "Cn1nnnc1C(C=C=C[C@@H](O)C[C@@H](O)CC(=O)O)=C(c1ccc(F)cc1)c1ccc(F)cc1"
  CLASS_NAME: "condition met"
- MOLECULE: "CC(/C=C/[C@@H](O)C[C@@H](O)CC(=O)O)=C(c1ccc(F)cc1)c1ccc(F)cc1"
  CLASS_NAME: "condition not met"

Turning to the following molecule.
Exam item: Decide: IC50 of Cc1ccc(C(=C(/C=C/[C@@H](O)C[C@@H](O)CC(=O)O)c2nnnn2C)c2ccc(C)cc2F)c(F)c1 strictly below 6 µM?
Marked response: condition met

----------
Target: 3-hydroxy-3-methylglutaryl-coenzyme A reductase (Rattus norvegicus)
Assay: The compound was tested for the relative potency with respect to standard compound BMY-21950
In this section we review reported Relative potency values for a set of compounds.
I'd appreciate a reply containing only the number, no unit.

- COMPOUND: "Cn1nnnc1C(/C=C/[C@@H](O)C[C@@H](O)CC(=O)O)=C(c1ccc(F)cc1)c1ccc(F)cc1 (stereo in doubt; 3a)"
  Relative potency: 0.43
- COMPOUND: "CC(C)(C)n1nnc(C(/C=C/[C@@H](O)C[C@@H](O)CC(=O)O)=C(c2ccc(F)cc2)c2ccc(F)cc2)n1 (stereo in doubt; 47)"
  Relative potency: 0.005

Exam item: If you can, please state the reported Relative potency value of CC(C)(C)n1nnc(C(/C=C/[C@@H](O)C[C@@H](O)CC(=O)O)=C(c2ccc(F)cc2)c2ccc(F)cc2)n1 (stereo in doubt; 49) .
Marked response: 1

Exam item: If you can, please state the reported Relative potency value of N#CC(/C=C/[C@@H](O)C[C@@H](O)CC(=O)O)=C(c1ccc(F)cc1)c1ccc(F)cc1 .
Marked response: 0.0024

Exam item: If you can, please state the reported Relative potency value of CC(C)n1nnnc1C(/C=C/[C@@H](O)C[C@@H](O)CC(=O)O)=C(c1ccc(F)cc1)c1ccc(F)cc1 .
Marked response: 0.0014

Exam item: If you can, please state the reported Relative potency value of Cc1ccc(C(=C(/C=C/[C@@H](O)C[C@@H](O)CC(=O)O)c2nnnn2C)c2ccc(C)cc2C)c(C)c1 .
Marked response: 0.012

Exam item: If you can, please state the reported Relative potency value of Cn1nnnc1C(/C=C/[C@@H](O)C[C@@H](O)CC(=O)O)=C(c1ccccc1)c1ccccc1 .
Marked response: 0.1

----------
Target: UniProt P51639
Assay: In vitro inhibitory activity was measured against rat liver HMG-CoA reductase
In this section we review reported IC50 values for a set of compounds.
Only the number, expressed in µM, is required.

- COMPOUND: "Cc1cc(F)ccc1C(=C(/C=C/[C@@H](O)C[C@@H](O)CC(=O)O)c1nnnn1C)c1ccc(F)cc1C"
  MEAS_VALUE: 0.029
- COMPOUND: "CC[C@H](C)C(=O)O[C@H]1C[C@@H](C)C=C2C=C[C@H](C)[C@H](CC[C@@H]3C[C@@H](O)CC(=O)O3)[C@H]21 [LOVASTATIN]"
  MEAS_VALUE: 0.027
- COMPOUND: "CC(C)n1nnnc1C(/C=C/[C@@H](O)C[C@@H](O)CC(=O)O)=C(c1ccc(F)cc1)c1ccc(F)cc1"
  MEAS_VALUE: 14
- COMPOUND: "Cn1nnnc1C(/C=C/[C@@H](O)C[C@@H](O)CC(=O)O)=C(c1ccccc1)c1ccccc1"
  MEAS_VALUE: 0.19
- COMPOUND: "Cn1nnc(C(/C=C/[C@@H](O)C[C@@H](O)CC(=O)O)=C(c2ccc(F)cc2)c2ccc(F)cc2)n1"
  MEAS_VALUE: 30
- COMPOUND: "O=C(O)C[C@H](O)C[C@H](O)/C=C/C(=C(c1ccc(F)cc1)c1ccc(F)cc1)C1N=NN=N1"
  MEAS_VALUE: 0.33

Exam item: If you can, please state the reported IC50 value of CC(C)(C)n1nnc(C(/C=C/[C@@H](O)C[C@@H](O)CC(=O)O)=C(c2ccc(F)cc2)c2ccc(F)cc2)n1 (stereo in doubt; 47) .
Marked response: 3.7

Exam item: If you can, please state the reported IC50 value of CC(C)(C)n1nnc(C(/C=C/[C@@H](O)C[C@@H](O)CC(=O)O)=C(c2ccc(F)cc2)c2ccc(F)cc2)n1 (stereo in doubt; 49) .
Marked response: 0.019

Exam item: If you can, please state the reported IC50 value of COc1ccc(C(=C(/C=C/[C@@H](O)C[C@@H](O)CC(=O)O)c2nnnn2C)c2ccc(OC)cc2)cc1 .
Marked response: 1.4

Exam item: If you can, please state the reported IC50 value of CCn1nnc(C(/C=C/[C@@H](O)C[C@@H](O)CC(=O)O)=C(c2ccc(F)cc2)c2ccc(F)cc2)n1 .
Marked response: 200

Exam item: If you can, please state the reported IC50 value of CC(C)C(/C=C/[C@@H](O)C[C@@H](O)CC(=O)O)=C(c1ccc(F)cc1)c1ccc(F)cc1 .
Marked response: 0.23

Exam item: If you can, please state the reported IC50 value of CC(C)n1nnnc1C(C=C=C[C@@H](O)C[C@@H](O)CC(=O)O)=C(c1ccc(F)cc1)c1ccc(F)cc1 .
Marked response: 130

Exam item: If you can, please state the reported IC50 value of Cc1ccc(C(=C(/C=C/[C@@H](O)C[C@@H](O)CC(=O)O)c2nnnn2C)c2ccc(C)cc2C)c(C)c1 .
Marked response: 1.6

Exam item: If you can, please state the reported IC50 value of CCn1nnnc1C(/C=C/[C@@H](O)C[C@@H](O)CC(=O)O)=C(c1ccc(F)cc1)c1ccc(F)cc1 .
Marked response: 1.1

Exam item: If you can, please state the reported IC50 value of Cn1nnnc1C(/C=C/[C@@H](O)C[C@@H](O)CC(=O)O)=C(\c1ccccc1)c1ccc(F)cc1 .
Marked response: 0.044
